Target: Procathepsin L (Homo sapiens, UniProt P07711)
Sequence (P07711 whole entry): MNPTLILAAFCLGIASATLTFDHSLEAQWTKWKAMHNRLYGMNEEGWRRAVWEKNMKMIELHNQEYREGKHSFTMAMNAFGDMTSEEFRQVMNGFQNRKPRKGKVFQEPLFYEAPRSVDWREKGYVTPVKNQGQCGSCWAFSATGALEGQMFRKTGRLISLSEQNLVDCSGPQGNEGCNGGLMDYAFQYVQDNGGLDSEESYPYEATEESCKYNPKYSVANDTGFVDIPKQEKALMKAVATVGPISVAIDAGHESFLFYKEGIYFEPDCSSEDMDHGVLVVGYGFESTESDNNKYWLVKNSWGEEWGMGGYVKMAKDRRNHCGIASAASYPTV
MEASUREMENT_TYPE: IC50 (nM)
Answers are plain numbers, in nM.

IC50 recorded for this compound, O=C1NC(=O)C(=C/C=C/c2ccc(OCc3ccc(F)cc3)cc2)C(=O)N1 , is 39.7

* * *

Target: Sortase A (Staphylococcus aureus, UniProt Q9S446, N24DEL)
Experiment: Inhibition of Staphylococcus aureus sortase A N24 deletion mutant using Abz-LPATG-Dnp as substrate preincubated for 20 mins followed by substrate addition by FRET assay
Provide the recorded pIC50 for the entries that follow.
One number for each entry, as −log10 of the molar value.

Recorded pIC50, per entry:
1) O=C1NC(=O)C(=C/C=C/c2ccccc2)C(=O)N1; 5.96
2) COc1ccc(/C(C#N)=C/C=C2C(=O)NC(=O)NC2=O)cc1; 5.33

Here are 4 compounds. What values of pIC50 were reported for them?
1. Cc1ccc(COc2ccc(/C=C/C=C3C(=O)NC(=O)NC3=O)cc2)cc1
2. O=C1NC(=O)C(=C/C=C/c2ccc(C(F)(F)F)cc2)C(=O)N1
3. O=C1NC(=O)C(=C/C=C/c2ccc([N+](=O)[O-])cc2)C(=O)N1
4. NC(=O)COc1ccc(/C=C/C=C2C(=O)NC(=O)NC2=O)cc1

1. 5.96
2. 5.85
3. 5.70
4. 6.05
